Source listed as the supplement of paper PMC12823440.

Target: PAG1 (UniProt Q9NWQ8)
Sequence (Q9NWQ8 whole entry): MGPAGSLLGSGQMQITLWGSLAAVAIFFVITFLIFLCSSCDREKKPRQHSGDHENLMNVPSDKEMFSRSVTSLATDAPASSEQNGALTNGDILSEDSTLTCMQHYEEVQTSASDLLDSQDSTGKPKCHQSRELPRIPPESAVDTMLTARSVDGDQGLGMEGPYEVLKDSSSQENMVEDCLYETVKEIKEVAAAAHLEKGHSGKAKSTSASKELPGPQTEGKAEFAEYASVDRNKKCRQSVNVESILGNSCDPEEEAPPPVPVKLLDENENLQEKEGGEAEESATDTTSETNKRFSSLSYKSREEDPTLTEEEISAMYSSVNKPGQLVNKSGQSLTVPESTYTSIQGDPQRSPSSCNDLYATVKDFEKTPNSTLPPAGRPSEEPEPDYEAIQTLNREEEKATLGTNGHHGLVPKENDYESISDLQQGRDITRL
Assay: apparent Kd (Kinobeads competition)
Conditions: lysate: 5-cell-line mix (COLO-205, K562, SK-N-BE(2), MV-4-11, OVCAR-8)
endpoint.label: pKd
One number for each entry, as −log10 of the molar value.

Ask: Requested field: pKd. Item: `COc1ccc2c(C(=O)Nc3ccc(NC(=O)c4nn(C5CCN(C(=O)CC(C)(C)C#N)CC5)c5ccc(F)cc45)cc3Cl)cnn2c1`
Result: 7.31

* * *

Biological target: UniProtKB P42684
Sequence (P42684 whole entry): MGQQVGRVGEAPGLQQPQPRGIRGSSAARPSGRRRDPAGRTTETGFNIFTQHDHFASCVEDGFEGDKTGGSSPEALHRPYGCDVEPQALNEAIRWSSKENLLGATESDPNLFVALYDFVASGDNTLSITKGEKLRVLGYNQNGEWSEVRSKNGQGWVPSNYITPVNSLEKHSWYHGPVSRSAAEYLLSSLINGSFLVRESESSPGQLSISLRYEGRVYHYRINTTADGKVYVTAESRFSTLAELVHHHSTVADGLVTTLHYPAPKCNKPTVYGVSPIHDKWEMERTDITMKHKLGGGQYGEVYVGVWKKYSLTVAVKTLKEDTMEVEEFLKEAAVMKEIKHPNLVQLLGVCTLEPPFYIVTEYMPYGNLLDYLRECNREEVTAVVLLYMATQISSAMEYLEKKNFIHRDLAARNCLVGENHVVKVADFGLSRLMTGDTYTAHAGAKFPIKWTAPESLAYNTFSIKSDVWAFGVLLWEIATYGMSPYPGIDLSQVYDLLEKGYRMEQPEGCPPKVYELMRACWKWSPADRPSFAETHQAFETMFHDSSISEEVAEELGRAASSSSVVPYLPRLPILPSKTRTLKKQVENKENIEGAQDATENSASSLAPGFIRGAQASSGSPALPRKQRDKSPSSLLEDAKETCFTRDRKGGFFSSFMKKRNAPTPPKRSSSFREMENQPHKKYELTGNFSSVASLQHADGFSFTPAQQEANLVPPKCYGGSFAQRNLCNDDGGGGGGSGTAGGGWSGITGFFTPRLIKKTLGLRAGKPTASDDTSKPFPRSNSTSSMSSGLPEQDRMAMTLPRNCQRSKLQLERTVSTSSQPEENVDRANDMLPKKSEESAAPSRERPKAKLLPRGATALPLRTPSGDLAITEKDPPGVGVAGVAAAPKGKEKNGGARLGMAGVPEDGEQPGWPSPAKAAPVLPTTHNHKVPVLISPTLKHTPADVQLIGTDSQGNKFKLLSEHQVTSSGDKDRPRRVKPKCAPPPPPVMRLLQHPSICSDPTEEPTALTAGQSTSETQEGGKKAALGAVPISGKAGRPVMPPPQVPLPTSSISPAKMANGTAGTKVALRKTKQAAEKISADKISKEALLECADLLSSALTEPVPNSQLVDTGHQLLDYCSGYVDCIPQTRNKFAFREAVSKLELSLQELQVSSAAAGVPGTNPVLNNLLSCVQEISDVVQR
Test: EC50 for competition of Kinobead binding
Conditions: lysate: 5-cell-line mix (COLO-205, K562, SK-N-BE(2), MV-4-11, OVCAR-8)
endpoint.label: EC50

Ask: Give the measured EC50 of `COc1ccc2c(C(=O)Nc3ccc(NC(=O)c4nn(C5CCN(C(=O)CC(C)(C)C#N)CC5)c5ccc(F)cc45)cc3Cl)cnn2c1` .
Result: 332 nM
